Source listed as patent US8557872B2.

Assay: PK study in rats, single oral administration
Assay type: in vivo, rat
Settings: rat, single oral administration, plasma, Table 2, read-out: T½ (converted)
measurementKind: half-life (h)

Record excerpt, results attached:
CCCc1cc(C(F)(F)F)ccc1/C=C/C(=O)NCc1cc(F)c(NS(C)(=O)=O)c(F)c1 [Example 22] :: 2.58
CCCNc1cc(C(F)(F)F)ccc1/C=C/C(=O)NCc1cc(F)c(NS(C)(=O)=O)c(F)c1 [Example 2] :: 3.55
C=Cc1cc(CNC(=O)/C=C/c2ccc(C(F)(F)F)cc2NC(C)C)cc(F)c1NS(C)(=O)=O [Example 54] :: 4.05

P. CCCc1cc(C(F)(F)F)ccc1/C=C/C(=O)N[C@H](C)c1cc(F)c(NS(C)(=O)=O)c(F)c1 [Example 21]
Q. CCCCc1cc(C(F)(F)F)ccc1/C=C/C(=O)N[C@H](C)c1cc(F)c(NS(C)(=O)=O)c(F)c1 [Example 24]
Input: Hi team, can someone confirm which has the larger half-life: P or Q ? Thanks. Select an item and report its label.
Output: P
(P: 3.5 h, Q: 2.08 h)

a. CCCNc1cc(C(F)(F)F)ccc1/C=C/C(=O)N[C@H](C)c1cc(F)c(NS(C)(=O)=O)c(F)c1 [Example 1]
b. CCCOc1cc(C(F)(F)F)ccc1/C=C/C(=O)N[C@H](C)c1cc(F)c(NS(C)(=O)=O)c(F)c1 [Example 5]
Input: For the pair a and b , which member has the lower half-life number? Let me know the label of the one you choose.
Output: a
(a: 1.4 h, b: 4.3 h)
